Collected Ki values appear next to each entry.
Target of assay: D1 receptor (Rattus norvegicus, UniProt P18901)
Construct: from tissue; host or cells: rat brain striatum membranes
Sequence (P18901 whole entry): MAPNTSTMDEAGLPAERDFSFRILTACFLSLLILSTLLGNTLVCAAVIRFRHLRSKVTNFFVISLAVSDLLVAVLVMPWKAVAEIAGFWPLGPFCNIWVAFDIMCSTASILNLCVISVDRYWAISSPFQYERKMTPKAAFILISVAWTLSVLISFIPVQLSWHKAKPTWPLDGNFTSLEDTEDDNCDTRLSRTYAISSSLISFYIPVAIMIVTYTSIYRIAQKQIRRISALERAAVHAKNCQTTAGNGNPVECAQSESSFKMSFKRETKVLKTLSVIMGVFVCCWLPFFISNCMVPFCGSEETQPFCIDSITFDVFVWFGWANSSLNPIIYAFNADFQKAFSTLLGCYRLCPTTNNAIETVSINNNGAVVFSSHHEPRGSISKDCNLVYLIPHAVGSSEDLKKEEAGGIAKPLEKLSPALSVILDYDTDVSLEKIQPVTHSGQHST
Test method notes: biochemical
Assay type: binding
Condition parameters: rat striated membranes; 0.2 nM [3H]-SCH23390; 37°C for 20 minutes; read-out: Affinity [K1 (nM)] D1 [^3H]-SCH23390
Readout kind: Ki

> print(dat)
                                   molecule  readout.kind  value.measured
1  Br.Br.CCCN(CCCCCCNCCc1ccc(O)c(O)c1)[C@H]1CCc2c(ccc(O)c2O)C1 [Compound 3, dihydrobromide]            Ki           21 nM
2  Br.Br.CCCN(CCCCCCNCCc1cccc(O)c1)[C@H]1CCc2c(ccc(O)c2O)C1 [Compound 1, dihydrobromide]            Ki           21 nM
3  Br.Br.CCCN(CCCCCCNCCc1ccc(O)cc1)[C@H]1CCc2c(ccc(O)c2O)C1 [Compound 2, dihydrobromide]            Ki           10 nM
4  Br.Br.CCCN(CCCCCCNCCc1cc(O)cc(O)c1)[C@H]1CCc2c(ccc(O)c2O)C1 [Compound 4, dihydrobromide]            Ki           33 nM
5  Br.Br.CCCN(CCCCCCNCCc1ccccc1O)[C@H]1CCc2c(ccc(O)c2O)C1 [Compound 15, dihydrobromide]            Ki           33 nM

----------
Collected D2-like (REA) pD2 values appear next to each entry.
Test system: D2-like (REA)
Test method notes: D2-like activity in the Rabbit Ear Artery (REA) test, isolated arterial rings
Parameters: species or system Male New Zealand rabbits
Condition parameters: agonist activity; electrically stimulated ear artery rings (10 Hz, 1 msec, 40-80 mA); compounds cumulatively administered
Where a name gives a salt, the structure may show the parent alone.
Readout kind: D2-like (REA) pD2

> print(dat)
                                    compound  value.measured
 1  Br.Br.CCCN(CCCCCCNCCc1ccccc1O)[C@H]1CCc2c(ccc(O)c2O)C1 [Compound 15]             9.2
 2  Br.Br.CCCN(CCCCCCNCCc1ccc(O)c(O)c1)[C@H]1CCc2c(O)cccc2C1 [Compound 6]             9.6
 3  Br.Br.CCCN(CCCCCCNCCc1ccc(O)cc1)[C@@H]1CCc2cc(O)c(O)cc2C1 [Compound 14]             9.9
 4  Br.Br.CCCN(CCCCCCNCCc1cccc(O)c1)[C@H]1CCc2c(ccc(O)c2O)C1 [Compound 1]             8.8
 5  Br.Br.CCCN(CCCCCCNCCc1ccc(O)cc1)[C@H]1CCc2c(O)cccc2C1 [Compound 9]             9.1
 6  Br.Br.CCCN(CCCCCCNCCc1ccc(O)c(O)c1)[C@H]1CCc2c(ccc(O)c2O)C1 [Compound 3]             9.5
 7  Br.Br.CCCN(CCCCCCNCCc1ccc(O)cc1)[C@H]1CCc2c(ccc(O)c2O)C1 [Compound 2]             8.8
 8  CCCN(CCCCCCNCCCc1ccccc1)[C@H]1CCc2c(ccc(O)c2O)C1 [Compound 12, dihydrochloride]             8.6
 9  CCCN(CCCCCCN(CCC)[C@H]1CCc2c(ccc(O)c2O)C1)CCc1ccc(O)cc1 [Compound 18, dihydrobromide]             9.2
10  NCCc1ccc(O)c(O)c1 [Dopamine, reference compound]             7.8
11  CCCN(CCCCNCCc1ccccc1)[C@H]1CCc2c(ccc(O)c2O)C1 [Compound 8, dihydrobromide]             8.2
12  CCCN(CCCCCCNCCc1ccccc1)[C@H]1CCc2cc(O)c(O)cc2C1 [Compound 11, dihydrochloride]             8.4

Numbers sourced from patent EP0781268B1.
